Each recorded value in this set is attributed to patent US20210315893A1.

Would you mind telling me the reported log10 EC50 of each entry?
# System name: human GPCR sphingosine 1-phosphate receptor 2 (Homo sapiens, UniProt O95136)
# Construct: host or cells: CHO
# Sequence (O95136 whole entry): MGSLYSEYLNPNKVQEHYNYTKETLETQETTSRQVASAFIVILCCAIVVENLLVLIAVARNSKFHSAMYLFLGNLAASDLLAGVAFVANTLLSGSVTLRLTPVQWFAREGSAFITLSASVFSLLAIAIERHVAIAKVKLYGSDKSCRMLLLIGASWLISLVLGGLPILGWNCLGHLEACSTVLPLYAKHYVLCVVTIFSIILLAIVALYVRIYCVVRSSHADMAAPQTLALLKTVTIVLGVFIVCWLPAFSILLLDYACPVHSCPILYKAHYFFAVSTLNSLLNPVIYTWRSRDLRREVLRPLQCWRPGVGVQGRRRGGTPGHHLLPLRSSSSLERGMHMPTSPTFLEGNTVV
# Test name: S1PR2 antagonist Ca2+ flux assay
# Type: cell-based
# Condition description: antagonist mode, CHO-S1PR2 cells, S1P at EC80, Ca2+ fluorescence; read-out: S1P2 EC50 (nM), S1P2 antagonist EC50
# log10 transformed; quantity=EC50; unit=nM

Q: Report log10 EC50 for CC(C(=O)O)n1nc(Cn2cc3cc(OCC4CC4)c(Cl)cc3n2)c2c(c1=O)CCCC2 (stereo not shown) [Compound 93] please.
Ans: 0.95

Q: Now consider CN(CC1CC1)C(=O)Cn1nc(Cc2nc3cc(C#N)c(OCC(F)F)cc3[nH]2)c2ccccc2c1=O [Compound 196] .
Ans: 1.20

Q: Now consider CC1(COc2cc3nc(Cc4nn(CC(=O)O)c(=O)c5ccccc45)[nH]c3cc2Cl)CC1 [Compound 131] .
Ans: 1.12

Q: Now consider N#Cc1cc2nc(Cc3nn(CC(=O)N4CCOCC4)c(=O)c4c3CCCC4)[nH]c2cc1OCC(F)F [Compound 164] .
Ans: 1.50

Q: Now consider O=C(Cn1nc(Cc2nc3cc(OCC(F)F)c(F)cc3[nH]2)c2ccccc2c1=O)N1CCOCC1 [Compound 156] .
Ans: 1.78

Q: Now consider N#Cc1cc2[nH]c(Cc3nn(CC(=O)NCC4CC(F)(F)C4)c(=O)c4ccccc34)nc2cc1OCC(F)F [Compound 232] .
Ans: 1.21

Q: Now consider O=C(O)c1nn(Cc2cn3cc(OCC4CC4)c(Cl)cc3n2)c2ccccc2c1=O [Compound 85] .
Ans: 1.57

Q: Now consider N#Cc1cc2nn(Cc3nn(CC(=O)O)c(=O)c4ccccc34)cc2cc1OCC(F)F [compound 8] .
Ans: 4.03

Q: Now consider CCOc1cc2nc(Cc3nn(CC(=O)O)c(=O)c4ccccc34)[nH]c2cc1C(F)(F)F [Compound 127] .
Ans: 0.92

Q: Now consider N#Cc1cc2nc(Cc3nn(CC(=O)N4CCC(F)(F)CC4)c(=O)c4ccccc34)[nH]c2cc1OCC(F)F [Compound 188] .
Ans: 1.80

Q: Now consider CS(=O)(=O)c1ccc2c(=O)n(CC(=O)N3CCOCC3)nc(Cc3nc4cc(Cl)c(OCC(F)F)cc4[nH]3)c2c1 [Compound 41] .
Ans: 3.02

Q: Now consider O=c1c2ccccc2c(Cc2nc3cc(Cl)c(OC(F)(F)F)cc3[nH]2)nn1CC1CNC1 [Compound 61] .
Ans: 2.83

Q: Now consider O=C(O)Cn1nc(Cn2cc3cc(OCC4CC4)c(Br)cc3n2)c2ccccc2c1=O [Compound 111] .
Ans: 1.18

Q: Now consider CS(=O)(=O)NC(=O)Cn1nc(Cc2nc3cc(OCC(F)F)c(F)cc3[nH]2)c2ccccc2c1=O [Compound 248] .
Ans: 1.95

Q: Now consider O=c1c2ccccc2c(Cc2nc3cc(Cl)c(OC(F)(F)F)cc3[nH]2)nn1C1CC1 [Compound 25] .
Ans: 2.34

* * *

Would you mind telling me the reported EC50 of each entry?
# System name: human GPCR sphingosine 1-phosphate receptor 2 (Homo sapiens)
# Construct: host or cells: CHO
# Test name: S1PR2 antagonist Ca2+ flux assay
# Assay type: cell-based
# Condition description: antagonist mode, CHO-S1PR2 cells, S1P at EC80, Ca2+ fluorescence; read-out: S1P2 EC50 (nM), S1P2 antagonist EC50
Write the number in nM without appending the unit.

Q: Provide value of EC50 for this record tested with human GPCR sphingosine 1-phosphate receptor 2 (Homo sapiens): N#Cc1cc2nc(Cc3nn(CC(=O)N4CCC[C@H]4CO)c(=O)c4ccccc34)[nH]c2cc1OCC(F)F
Ans: 416

Q: Now consider CS(=O)(=O)NC(=O)Cn1nc(Cc2nc3cc(OCC(F)F)c(Cl)cc3[nH]2)c2cc(C#N)ccc2c1=O .
Ans: 14.3

Q: Now consider CC1(C)OCC(Cn2nc(Cc3nc4cc(Cl)c(OC(F)(F)F)cc4[nH]3)c3ccccc3c2=O)O1 (stereo not shown) .
Ans: 1280

Q: Now consider N#Cc1cc2[nH]c(Cc3nn(C4CN(CC(=O)O)C4)c(=O)c4ccccc34)nc2cc1OCC(F)F .
Ans: 238

* * *

# System name: S1PR2 (Homo sapiens, UniProt O95136)
# Construct: expressed in transfected cells
# Sequence (O95136 whole entry): as above
# Test name: S1PR2 binding assay (competition with radioactively labeled S1P, SpA)
# Condition description: membranes from stable cell line over expressing S1PR2, SpA beads; read-out: S1P2 EC50 (nM), S1PR2 binding EC50
# Procedure: The following assay can be used for determination of S1PR2 binding. The binding assay measures the potential to compete with radioactively labeled S1P for binding to the receptor. The assay is performed in a96 well plate where the following reagents are added. […] Plates are read on a Topcount reader (Perkin Elmer) immediately after centrifugation (readout time, 1 min/well).
Readout label: EC50 (nM)
Write the number in nM without appending the unit.

Q: Report EC50 for N#Cc1cc2[nH]c(Cc3nn(CC(=O)NCCC(F)(F)F)c(=O)c4ccccc34)nc2cc1OCC(F)F [Compound 224] please.
Ans: 232

Q: Now consider O=C(O)c1cn(Cc2nc3cc(OCC4CC4)c(Cl)cc3[nH]2)c2ccccc2c1=O [Compound 90] .
Ans: 13.3

Q: Now consider N#Cc1cc2[nH]c(Cc3nn(CC(=O)N4CCC(O)(C5CC5)CC4)c(=O)c4ccccc34)nc2cc1OCC(F)F [Compound 213] .
Ans: 159

Q: Now consider COc1cc2[nH]c(Cc3nn(CC(=O)O)c(=O)c4c3CCCC4)nc2cc1Cl [Compound 120] .
Ans: 392

Q: Now consider O=C(Cn1nc(Cc2nc3cc(OC(F)(F)F)c(Cl)cc3[nH]2)c2ccccc2c1=O)N[C@H]1CCC[C@H]1O [Compound 140] .
Ans: 29.8

Q: Now consider O=c1c2ccccc2c(Cc2nc3cc(Cl)c(OC(F)(F)F)cc3[nH]2)nn1CC1CCCNC1 (stereo not shown) [Compound 58] .
Ans: 1100

Q: Now consider CC(C(=O)O)n1nc(Cc2cn3cc(OCC4CC4)c(Cl)cc3n2)c2cc(F)ccc2c1=O (stereo not shown) [Compound 86] .
Ans: 28.7

* * *

Would you mind telling me the reported EC50 of each entry?
# System name: human GPCR sphingosine 1-phosphate receptor 1 (Homo sapiens, UniProt P21453)
# Construct: host or cells: CHO
# Sequence (P21453 whole entry): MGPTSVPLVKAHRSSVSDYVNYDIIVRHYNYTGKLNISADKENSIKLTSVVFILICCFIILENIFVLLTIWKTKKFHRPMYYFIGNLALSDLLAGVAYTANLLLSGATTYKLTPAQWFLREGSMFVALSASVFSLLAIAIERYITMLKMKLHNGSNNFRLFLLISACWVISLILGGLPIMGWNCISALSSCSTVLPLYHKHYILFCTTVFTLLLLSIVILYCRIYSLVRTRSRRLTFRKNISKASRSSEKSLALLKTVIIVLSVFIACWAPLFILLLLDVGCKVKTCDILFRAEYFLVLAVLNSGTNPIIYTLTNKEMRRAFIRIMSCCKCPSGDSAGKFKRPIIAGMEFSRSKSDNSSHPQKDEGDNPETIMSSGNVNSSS
# Test name: S1PR1 selectivity Ca2+ flux assay (antagonist readout)
# Type: cell-based
# Condition description: antagonist readout, CHO cells overexpressing human S1PR1 and Gq, S1P at EC80 (6 nM); read-out: S1P1 EC50 (nM), S1P1 antagonist EC50

Q: Report EC50 for COCCOc1cc2nc(Cc3nn(CC(=O)N4CCOCC4)c(=O)c4ccccc34)[nH]c2cc1C#N [Compound 51] please.
Ans: ≥ 19800 nM

Q: Now consider N#Cc1cc2nc(Cc3nn(CC(=O)N4CCOCC4)c(=O)c4c3CCCC4)[nH]c2cc1OCC(F)F [Compound 164] .
Ans: ≥ 19800 nM

Q: Now consider N#Cc1cc2[nH]c(Cc3nn(CC(=O)N4C[C@H](O)[C@@H](O)C4)c(=O)c4ccccc34)nc2cc1OCC(F)F [Compound 211] .
Ans: ≥ 19800 nM

Q: Now consider O=C(Cn1nc(Cc2nc3cc(OCC(F)F)c(F)cc3[nH]2)c2ccccc2c1=O)N1CCOCC1 [Compound 156] .
Ans: ≥ 19800 nM

Q: Now consider CCOc1cc2nc(Cc3nn(CC(=O)O)c(=O)c4ccccc34)[nH]c2cc1C(F)(F)F [Compound 127] .
Ans: 3500 nM

Q: Now consider CC(F)(F)COc1cc2[nH]c(Cc3nn(CC(=O)N4CCOCC4)c(=O)c4ccccc34)nc2cc1Cl [Compound 172] .
Ans: ≥ 19800 nM

Q: Now consider O=C(O)Cn1nc(Cc2nc3cc(OC(F)(F)F)c(Cl)cc3[nH]2)c2ccccc2c1=O [Compound 112] .
Ans: ≥ 19900 nM

* * *

Would you mind telling me the reported log10 EC50 of each entry?
# System name: human GPCR sphingosine 1-phosphate receptor 2 (Homo sapiens)
# Construct: host or cells: CHO
# Test name: S1PR2 antagonist Ca2+ flux assay
# Type: cell-based
# Condition description: antagonist mode, CHO-S1PR2 cells, S1P at EC80, Ca2+ fluorescence; read-out: S1P2 EC50 (nM), S1P2 antagonist EC50
# log10 transformed; quantity=EC50; unit=nM

Q: Provide value of log10 EC50 for this record tested with human GPCR sphingosine 1-phosphate receptor 2 (Homo sapiens): O=c1c2ccccc2c(Cc2nc3cc(Cl)c(OC(F)(F)F)cc3[nH]2)nn1CC1CCNC1 (centres unmarked)
Ans: 2.21

Q: Now consider O=C(Cn1nc(Cn2cc3cc(OCC4CC4)c(Cl)cc3n2)c2ccccc2c1=O)N1CCOCC1 .
Ans: 1.62

Q: Now consider N#Cc1cc2[nH]c(Cc3nn(CC(=O)N4CCC(C#N)CC4)c(=O)c4ccccc34)nc2cc1OCC(F)F .
Ans: 1.51

Q: Now consider CS(=O)(=O)NC(=O)Cn1nc(Cn2cc3cc(OCC4CC4)c(Cl)cc3n2)c2ccccc2c1=O .
Ans: 0.95

Q: Now consider O=c1c2ccccc2c(Cc2nc3cc(Cl)c(OC(F)(F)F)cc3[nH]2)nn1CC1CCC1 .
Ans: 3.17

Q: Now consider O=C(Cn1nc(Cc2nc3cc(Cl)c(OCC(F)F)cc3[nH]2)c2ccc(N3CCOCC3)cc2c1=O)N1CCOCC1 .
Ans: 1.94

Q: Now consider COCCN(C)C(=O)Cn1nc(Cc2nc3cc(OCC(F)F)c(C#N)cc3[nH]2)c2ccccc2c1=O .
Ans: 1.88

Q: Now consider C[C@@H]1CN(C(=O)Cn2nc(Cc3nc4cc(OCC(F)F)c(C#N)cc4[nH]3)c3ccccc3c2=O)C[C@H](C)O1 .
Ans: 1.76

Q: Now consider O=C(O)Cc1nn(Cc2nc3cc(OCC4CC4)c(Br)cc3[nH]2)c2ccccc2c1=O .
Ans: 0.37

Q: Now consider N#Cc1cc2nn(Cc3nn(CC(=O)N4CCOCC4)c(=O)c4ccccc34)cc2cc1OCC1CC1 .
Ans: 2.29

Q: Now consider N#CC1(COc2cc3[nH]c(Cc4nn(CC(=O)N5CCOCC5)c(=O)c5ccccc45)nc3cc2Cl)CC1 .
Ans: 1.19

Q: Now consider C[C@@H]1CN(C(=O)Cn2nc(Cc3nc4cc(Cl)c(OCC5(C#N)CC5)cc4[nH]3)c3ccccc3c2=O)C[C@H](C)O1 .
Ans: 0.96

Q: Now consider O=C(O)c1cn(Cc2nc3cc(OCC4CC4)c(Cl)cc3[nH]2)c2ccccc2c1=O .
Ans: 0.72

Q: Now consider O=C(O)C1(n2nc(Cn3cc4cc(OCC5CC5)c(Cl)cc4n3)c3ccccc3c2=O)CC1 .
Ans: 1.29

Q: Now consider O=C(Cn1nc(Cc2nc3cc(Cl)c(OC(F)(F)F)cc3[nH]2)c2c(c1=O)CCCC2)N[C@H]1CCC[C@@H]1O .
Ans: 1.18

Q: Now consider N#Cc1cc2[nH]c(Cc3nn(CC(=O)N4CCC(O)(C(F)(F)F)C4)c(=O)c4ccccc34)nc2cc1OCC(F)F (centres unmarked) .
Ans: 1.11

Q: Now consider N#Cc1cc2nc(Cc3nn(CC(=O)O)c(=O)c4ccccc34)[nH]c2cc1OCC(F)F .
Ans: 2.08

Q: Now consider COCCOc1cc2nc(Cc3nn(C4CCNC4)c(=O)c4ccccc34)[nH]c2cc1Cl (centres unmarked) .
Ans: 1.57

Q: Now consider N#Cc1cc2[nH]c(Cc3nn(CC(=O)N4CC(O)(C5CC5)C4)c(=O)c4ccccc34)nc2cc1OCC(F)F .
Ans: 2.08

Q: Now consider O=C(Cn1nc(Cc2cc3cc(Cl)c(OCC(F)F)cc3[nH]2)c2ccccc2c1=O)N1CCOCC1 .
Ans: 1.90

Q: Now consider CN(C)C(=O)CN(C)C(=O)Cn1nc(Cc2nc3cc(OCC(F)F)c(C#N)cc3[nH]2)c2ccccc2c1=O .
Ans: 1.67

Q: Now consider Cc1cccc2c(=O)n(CC(=O)N3CCOCC3)nc(Cc3nc4cc(OCC(F)F)c(C#N)cc4[nH]3)c12 .
Ans: 1.28

Q: Now consider O=C(Cn1nc(Cc2nc3cc(OCC(F)F)c(Cl)cc3[nH]2)c2c(C3CC3)cccc2c1=O)N1CCOCC1 .
Ans: 1.99

Q: Now consider CC(C)(C)NC(=O)Cn1nc(Cn2cc3cc(OCC4CC4)c(Cl)cc3n2)c2ccccc2c1=O .
Ans: 2.28

Q: Now consider CCOc1cc2cn(Cc3nn(CC(=O)O)c(=O)c4ccccc34)nc2cc1Cl .
Ans: 2.25

Q: Now consider CC(C)(C)NC(=O)Cn1nc(Cc2nc3cc(Cl)c(OC(F)(F)F)cc3[nH]2)c2c(c1=O)CCCC2 .
Ans: 3.14

Q: Now consider CN(C)CC(C(=O)O)c1nn(Cc2nc3cc(C#N)c(OCC4CC4)cc3[nH]2)c2ccccc2c1=O (centres unmarked) .
Ans: 0.73
